# MIC per entry
# Tested on: Sindbis virus
# TEST_PROTOCOL: Antiviral activity against sindbis virus in Vero cell culture lines
# Assay type: functional

Worked examples follow.
COMPOUND	MIC
CCCOC(=O)C(CCSC[C@H]1OC(n2ccc3c(N)ncnc32)[C@H](O)[C@@H]1O)NC(=O)COC (stereo not given in full)	> 40 µg/mL
Nc1ncnc2c1CCN2[C@@H]1O[C@H](CSCCC(N)C(=O)O)C[C@H]1O (stereo not given in full)	> 200 µg/mL

Request the reported MIC associated with Nc1ncnc2c(C3O[C@H](CSCCC(N)C(=O)O)[C@@H](O)[C@H]3O)n[nH]c12 (stereo not given in full)
> 100 µg/mL

Request the reported MIC associated with CCOC(=O)C(CCSC[C@H]1OC(n2ccc3c(N)ncnc32)[C@H](O)[C@@H]1O)NC(C)=O (stereo not given in full)
> 70 µg/mL

Request the reported MIC associated with Nc1ncnc2c([C@@H]3O[C@H](CO)C[C@H]3O)n[nH]c12
> 400 µg/mL

Data origin: ChEMBL document CHEMBL1126104
